All values here come from the supplement of paper PMC9170038.

tested on: K4 kissing-loop RNA reporter; assay: apparent KD of K4 kissing-loop reporter; higher = weaker reporter binding; details: Eterna round: R107; input ligand: arginine 13.2 mM
apparent KD of K4 kissing-loop reporter overview
measure: apparent KD of K4 kissing-loop reporter (nM)

[
  {
    "macromolecule.sequence": "GCCGUAGAUGGAAGGAGCGAGGUAGACUGUUGAAGUGAUGUUUCAACUCAUUAAGCCCAACCUCAGGUAGGUCGCCAUCUACGGC",
    "target.or.system": "K4 kissing-loop RNA reporter",
    "value.reported": 110
  },
  {
    "macromolecule.sequence": "AAGUGAUGUUGUAGUGAUGUUGUGAUGUUGCAGGAUAUAUAGUGAUGUAGAAGGGUAUGUACAGUUUUUUUUUUUGAGUGUUGAU [sscsmullin]",
    "target.or.system": "K4 kissing-loop RNA reporter",
    "value.reported": 36
  },
  {
    "macromolecule.sequence": "CAUACGCAUGGAGGAUAUGAGAUUUCUCAUAUUAUUUAAUAUUCUCAGUGAUGUUGAGAUUUAAACUCAGAAGGCCAUGUGUAUG [Ex FMN B 6]",
    "target.or.system": "K4 kissing-loop RNA reporter",
    "value.reported": 235
  },
  {
    "macromolecule.sequence": "UGUACCGAGUUAGGAUAUGUCGUCGAAAGACGAAAUGGAGUGAUGUUCCUUAAACUGCGAAAGCAGACAGAAGGGACUUGGUACU [FmnBS 29 U11]",
    "target.or.system": "K4 kissing-loop RNA reporter",
    "value.reported": 473
  },
  {
    "macromolecule.sequence": "AAUAAGGUCGCCGAUACCAGCGCAGGCAGAGCAAAGCUCUGCCAAGUAGUGAUGUUACUGCGCCCUUGGCAGCGGUGGCACGACC [Omei KL Theo B SS C v3]",
    "target.or.system": "K4 kissing-loop RNA reporter",
    "value.reported": 157
  },
  {
    "macromolecule.sequence": "UGCACGGGCUCGGCCGCCACUCCCGCGGGUCGGAAGGUCCGCUACUGAGUGAUGUUCGGUUGGAGGAGGACCGGGAGCCCGUGCA [#2 Exclusion - Tryptophan B Attempt #26 (HarryS)]",
    "target.or.system": "K4 kissing-loop RNA reporter",
    "value.reported": 109
  }
]

* * *

system: MS2 coat protein; assay: apparent KD of MS2 coat protein; designed switch direction (-1 OFF switch, 1 ON switch): -1; higher = weaker reporter binding; conditions: input ligand: none
Where apparent KD of MS2 coat protein equals or exceeds 30 nM, the correct label is satisfied; where it does not, the label is not satisfied.

[
  {
    "macromolecule.sequence": "GUCAGCUCGUCAGGAUAUACAUGAGGAUCACCCAUGUGAUCAAUAGCAGCUUCGGCUGCAUACAUGUAGAAGGGACGAGCUGAU [ENG2/6-B2] (Eterna round: R96, puzzle: Exclusion NG 2)",
    "category.label": "satisfied"
  },
  {
    "macromolecule.sequence": "CUAAAUCAUGUAGGAUAUGCGUGGCGAAGCUAUGCAGAAGGACAUGAGGAUCACCCAUGUUCUUCCGUCUGCGUACAGACGGAA [JL ENG1 1.18] (Eterna round: R96, puzzle: Exclusion NG 1)",
    "category.label": "satisfied"
  },
  {
    "macromolecule.sequence": "GUACCAAAUGUAGGAUAUGGAUCCGAUUAGGAUCCAGAAGGACAUGAGGAUCACCCAUGUACAUGAGGAUCACCCAUUAGGUAC [Fiskers ExNg1 - 11] (Eterna round: R96, puzzle: Exclusion NG 1)",
    "category.label": "satisfied"
  },
  {
    "macromolecule.sequence": "GUAGAUCGAGUUAGGAUAUGAUUAAAAUCCGGAUAUCAGAAGGAACUUGAGGAUCACCCAAGUAUAGAUGAUUC [JR_BMEx4_Sub056] (Eterna round: R97, puzzle: Brourd's mod of Exclusion 4)",
    "category.label": "satisfied"
  },
  {
    "macromolecule.sequence": "UGUUGUUACGCAGGAUAUGCAUGAGGAUCACCCAUGCAACCACAUUUAACAUGAGGAUCACCCAUGUAGAAGGGCGGGUUAACA [pwkr exNG2 2xF5 1xFMN.1] (Eterna round: R96, puzzle: Exclusion NG 2)",
    "category.label": "not satisfied"
  }
]

* * *

tested on: MS2 coat protein; assay: apparent KD of MS2 coat protein; designed switch direction (-1 OFF switch, 1 ON switch): 1; higher = weaker reporter binding; conditions: Eterna round: R95; input ligand: FMN 200 uM

[
  {
    "macromolecule.sequence": "UGUCCAGCCUGAGCUGGACAAAAGCAUGUACAUGAGGAUCACCCAUGUUCAUGUACAAGCUUUUUGCUCGUCUUGCA [salish99_208a_r3_109x] (puzzle: Sensor for hsa-mir-208a)",
    "apparent KD of MS2 coat protein": "637 nM"
  },
  {
    "macromolecule.sequence": "CGUCGCUGUCGAGAGGAUAUGCGGUGAUGGACAUGAGGAUCACCCAUGUUAGCGAUAGCAUCGCGGCAGAAGGCUCUUACGACUG [Soteed Omei mod 28] (puzzle: Same State 2)",
    "apparent KD of MS2 coat protein": "18.6 nM"
  },
  {
    "macromolecule.sequence": "CGGGUACAUGAGGAUCACCCAUGUGGGAGGGAUGCAGGAUAUGUGGGAAAAGGGUAUGUAACAGAAGGGCAAGGAG [JR_SS!_Sub014] (puzzle: Same State 1)",
    "apparent KD of MS2 coat protein": "30.8 nM"
  },
  {
    "macromolecule.sequence": "UACCAACAUAUAGAACAAGCGUGCUCGUCACAUGAGGAUCACCCAUGUCUAAACGCUGUACCUACAUCCUCAGCGCC [Eddiso] (puzzle: Sensor for hsa-mir-208a)",
    "apparent KD of MS2 coat protein": "23.3 nM"
  },
  {
    "macromolecule.sequence": "CGGCUUGUACAUGAGGAUCACCCAUGUAUGUACAAGUUUUUGCUCGUCUUAUAAAUACGAUCUACCGAAAGGUAGAU [BIOPHYS241_ElaineNg_1] (puzzle: Sensor for hsa-mir-208a version 2)",
    "apparent KD of MS2 coat protein": "276 nM"
  }
]

* * *

tested on: MS2 coat protein; assay: apparent KD of MS2 coat protein; designed switch direction (-1 OFF switch, 1 ON switch): -1; higher = weaker reporter binding; details: input ligand: microRNA oligo, concentration not stated
measure: apparent KD of MS2 coat protein (nM)

[
  {
    "macromolecule.sequence": "GUUUUAUAUGAAGGAUAUACUUAACAUGAGGAUCACCCAUGUGGUGUUGUGAGUGAGUGAGUUUAGUAGAAGGUCAAUGAUUUU [JMF's solution 77] (Eterna round: R96, puzzle: Exclusion NG 2)",
    "endpoint.unit": "nM",
    "value.reported": 396
  },
  {
    "macromolecule.sequence": "ACAGUUCUGCAAGGAUAUCGUCCUAGUUUGUUUCGAGAAGGUGCUUUUGUUUUUUCUUUGUGUUGACAUGAGGAUCACCCAUGU [JR_ExcNG1_Sub052] (Eterna round: R96, puzzle: Exclusion NG 1)",
    "endpoint.unit": "nM",
    "value.reported": 20.6
  },
  {
    "macromolecule.sequence": "CUUGUUUAUGUAGGAUAUGCCUGGCGUGCCUUUGCAGAAGGACAUGAGGAUCACCCAUGUGGUAUGAGGCUUACCCUUGUCGCC [salish99_ExNG1_r04_121] (Eterna round: R96, puzzle: Exclusion NG 1)",
    "endpoint.unit": "nM",
    "value.reported": 21.1
  },
  {
    "macromolecule.sequence": "ACUAGGAGAUUAGGAUAUCUAUCUCACAUGAGGAUCACCCAUGUAUAAGCGUCCUAAAGGUGGAUGGAGAAGGGAUGUCCGAAG [Eternabot solution 13] (Eterna round: R96, puzzle: Exclusion NG 2)",
    "endpoint.unit": "nM",
    "value.reported": 13.8
  }
]

* * *

test system: K4 kissing-loop RNA reporter; test: apparent KD of K4 kissing-loop reporter; higher = weaker reporter binding; settings: Eterna round: R107; input ligand: arginine 13.2 mM;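 further: bound reporter read as fluorescence of individual clusters on recovered sequencing chips by microscopy, with normalized cluster intensities fitted with a binding model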
The entries below come with measured apparent KD of K4 kissing-loop reporter values attached.
measure: apparent KD of K4 kissing-loop reporter

[
  {
    "macromolecule.sequence": "UGUACCGAGUCAGGAUAUGACGACUAGUCAAAGACUGGUCGAAAAUCCAGUGAUGUUGGAAAUAAAUCAGAAGGGACUUGGUACU [FmnBS 16 #SwitchBubble #StaticStem]",
    "measure": "apparent KD of K4 kissing-loop reporter",
    "value.reported": "309 nM"
  },
  {
    "macromolecule.sequence": "AAAUUUAAUAUAUUUAAUUAAUUAUGUGAUACCAGACAUUUAUAAGUCCCUUGGCAGCACUUUGCAGUGAUGUUGCUUAUAAUAA [JR_SSTheophyA_Sub014]",
    "measure": "apparent KD of K4 kissing-loop reporter",
    "value.reported": "97.1 nM"
  },
  {
    "macromolecule.sequence": "AUCGUUGUCUGAGGAUAUCGGUUAACUGUAGUGAUGUUACAGAAAAUUCAUAUAAUAUUUUCUAUUCGAGAAGGCAGACUACGUA [JR_ExcFMNB_Sub018]",
    "measure": "apparent KD of K4 kissing-loop reporter",
    "value.reported": "157 nM"
  }
]
